Target: alanyl aminopeptidases (APN) (Homo sapiens)
Sequence (P15144 whole entry, species assumed): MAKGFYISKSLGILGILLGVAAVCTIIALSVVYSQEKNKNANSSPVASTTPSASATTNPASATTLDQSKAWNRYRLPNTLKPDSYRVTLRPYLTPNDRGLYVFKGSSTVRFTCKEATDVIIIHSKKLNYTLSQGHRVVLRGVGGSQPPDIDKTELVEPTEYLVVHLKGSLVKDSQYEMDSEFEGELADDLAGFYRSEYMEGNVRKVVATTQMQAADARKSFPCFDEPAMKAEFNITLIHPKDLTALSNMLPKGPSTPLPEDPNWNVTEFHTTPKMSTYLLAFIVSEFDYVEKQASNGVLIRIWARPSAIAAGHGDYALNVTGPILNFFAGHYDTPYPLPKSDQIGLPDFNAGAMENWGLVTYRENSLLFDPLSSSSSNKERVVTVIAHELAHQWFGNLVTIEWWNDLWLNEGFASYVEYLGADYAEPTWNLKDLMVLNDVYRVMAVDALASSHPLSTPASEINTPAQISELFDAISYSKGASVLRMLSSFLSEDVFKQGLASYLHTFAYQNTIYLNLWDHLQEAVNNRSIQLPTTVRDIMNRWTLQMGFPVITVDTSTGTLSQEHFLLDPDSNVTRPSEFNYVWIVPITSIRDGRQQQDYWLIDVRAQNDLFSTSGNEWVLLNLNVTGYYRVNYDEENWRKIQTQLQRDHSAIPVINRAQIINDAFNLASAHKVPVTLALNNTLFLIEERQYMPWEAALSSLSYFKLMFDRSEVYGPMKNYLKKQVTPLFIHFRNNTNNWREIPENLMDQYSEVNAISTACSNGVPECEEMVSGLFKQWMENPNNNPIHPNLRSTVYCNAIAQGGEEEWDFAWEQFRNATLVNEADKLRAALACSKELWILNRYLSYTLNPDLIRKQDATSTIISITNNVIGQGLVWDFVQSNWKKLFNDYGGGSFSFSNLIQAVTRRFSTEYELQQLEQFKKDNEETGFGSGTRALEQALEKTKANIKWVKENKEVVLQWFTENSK
Experiment: Inhibition of alanyl aminopeptidase enzymatic activity, fluorogenic substrate (Ala)2-rhodamine 110
Assay type: biochemical
Details: Table 9, unstarred values; read-out: IC50APN
Measured Metric: pIC50
Answer as the number alone; pIC50 is minus log10 of concentration in mol/L.

Documented pIC50 of CCOc1cccc(/C=N/NC(=O)C2=C(C)Nc3ccccc3S2)c1O [A9.086] : 4.48

Documented pIC50 of Cn1nc(-c2cccs2)nc2c(=O)n(C)c(=O)nc1-2 [A9.059] : 4.60

Documented pIC50 of COC(=O)c1ccccc1-c1ccc(/C=C2\C(=O)N(C)C(=O)C(C#N)=C2C)o1 [A9.071] : 4.55

Documented pIC50 of COC(=O)c1ccc(-c2ccc(/C=C3\C(=O)N(CCCO)C(=O)C(C#N)=C3C)o2)cc1 [A9.008] : 5.30

Documented pIC50 of CCc1c(C)nc2c(OC)cccc2c1SCC(=O)O [A9.082] : 4.51

Documented pIC50 of CN(C)c1c(Cl)cc(/C(=N/O)N2CCOCC2)cc1Cl [A9.054] : 4.67

Documented pIC50 of COc1ccc(/C=N/NC(=O)C2=C(C)Nc3ccccc3S2)cc1Cn1nc(C)c(Br)c1C [A9.007] : 5.32

Documented pIC50 of Cc1ccc(C(=O)N/C(=C\c2ccco2)C(=O)N2CCOCC2)cc1C [A9.073] : 4.54

Documented pIC50 of O=C(Nc1ccc(O)cc1C(=O)O)c1cccc(N2C(=O)c3cccc4c([N+](=O)[O-])ccc(c34)C2=O)c1 [A9.063] : 4.63
